experiment: Cytotoxicity to mock-infected MT-4 cells; format: cell-based; conditions: human
assay metric: CC50 (µM)
// note: answer is a bare numeric in µM

Q) If you can, please state the reported CC50 value of Cc1cn([C@H]2C[C@H](N=[N+]=[N-])[C@@H](CO)O2)c(=O)[nH]c1=O [AZT, 3′-azido-3′-deoxythymidine, reference compound] .
A) 140

Q) Tell me the measured CC50 of C=C(C)[C@@H]1CC[C@]2(C(=O)O)CC[C@]3(C)[C@H](CC[C@@H]4[C@@]5(C)CC[C@H](OC(=O)CC(C)(C)C(=O)O)C(C)(C)[C@@H]5CC[C@]43C)[C@@H]12 [Bevirimat (14), reference compound] , please.
A) 13.2

* * *

So I've got a bunch of compounds here, and I need their CC50 values.
system: mock-infected MT-4 cells; assay: Cytotoxicity to mock-infected MT-4 cells; assay type: cell-based; details: read-out: CC50 (concentration of test sample that was cytotoxic to 50% of the mock-infected cells)
Report as a plain number; the unit µM is understood.

Q) Request the reported CC50 associated with `C=C(C)[C@@H]1CC[C@]2(C(=O)OCc3cn([C@H]4C[C@H](n5cc(C)c(=O)[nH]c5=O)O[C@@H]4CO)nn3)CC[C@]3(C)[C@H](CC[C@@H]4[C@@]5(C)CC[C@H](OC(=O)CC(C)(C)C(=O)O)C(C)(C)[C@@H]5CC[C@]43C)[C@@H]12`
A) 11.2

Q) Entry under review: `C#CCOC(=O)[C@]12CC[C@@H](C(=C)C)[C@@H]1[C@H]1CC[C@@H]3[C@@]4(C)CC[C@H](OC(=O)CC(C)(C)C(=O)O)C(C)(C)[C@@H]4CC[C@@]3(C)[C@]1(C)CC2` . Reported CC50?
A) 15.3

Data origin, for the record: paper PMC3375835
